System: UO-31 renal
Experiment: NCI-60 one-dose screen, 48 h
Conditions: 10 µM unless noted
Compounds without any hit were thinned out: in the full panel of roughly 83,000, 20% have a hit. Calls of active or inactive are those of the source. Rule for the calls: active = growth percent below 10; inactive = the rest.
Choose the fitting class; nothing outside Yes (active), No (inactive) is accepted.

Kindly provide the recorded test outcome for the following compound: `c1ccc(COc2ccc(Nc3ncnc4c3cnn4-c3ccccc3)cc2)cc1` No

Field: outcome | Entry: Clc1ccc(C2=NN(c3ccc(Cl)cc3)C(c3cccc(Nc4ccnc5cc(Cl)ccc45)c3)C2)cc1 (centres undefined) No

I would be grateful if you could indicate the recorded call for `CC(=O)O[C@H]1CC[C@@]2(C)C(=CC[C@@H]3[C@@H]2CC[C@]2(C)C(c4cccnc4)=CC[C@@H]32)C1` . No

// param item: NC(=O)NS(=O)(=O)c1ccc(N2N=C(C(F)(F)F)CC2c2cc(C(F)(F)F)cc(C(F)(F)F)c2)cc1 (centres undefined) ; yields the recorded call No

Check the results log: what was the call for `Cc1[nH]c(=O)[nH]c(=O)c1CCSSCCc1c(C)[nH]c(=O)[nH]c1=O` ? No

Record lookup: outcome of this test for `COc1ccc2c(c1)C(=Nc1cc(OC)c(OC)c(OC)c1)C(=O)N2` ? No

Hi team, can someone confirm the assay call for `O=C1C=CC(=O)N1c1ccccc1N1C(=O)C=CC1=O` ? No

How did this test come out for `O=C(CNc1ccc2c(c1)C(=O)c1ccccc1C2=O)Nc1ccc2c(c1)C(=O)c1ccccc1C2=O` ? Yes

Write down the call the test reported for this compound. Item: `[N-]=[N+]=NCc1ncc(-c2ccc(C(F)(F)F)cc2)c(NC2CCCCCC2)n1` No
